Listed below: pEC50 values for each entry.
testedOn: human NPY1 receptor (hNPY1R) (Homo sapiens)
Construct: expressed in transfected cells
Sequence (P25929 1-384): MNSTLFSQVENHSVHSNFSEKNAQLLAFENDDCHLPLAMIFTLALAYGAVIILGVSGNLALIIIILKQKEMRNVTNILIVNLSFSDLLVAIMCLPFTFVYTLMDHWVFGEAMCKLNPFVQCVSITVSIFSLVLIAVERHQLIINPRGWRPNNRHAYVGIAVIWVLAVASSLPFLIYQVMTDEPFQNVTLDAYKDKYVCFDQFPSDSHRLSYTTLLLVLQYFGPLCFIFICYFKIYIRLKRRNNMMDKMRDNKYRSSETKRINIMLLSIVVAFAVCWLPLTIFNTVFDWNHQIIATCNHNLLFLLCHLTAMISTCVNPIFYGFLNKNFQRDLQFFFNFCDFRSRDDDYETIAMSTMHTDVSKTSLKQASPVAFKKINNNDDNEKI
assayOverview: calcium flux (FLIPR) assay, functional activity on human NPY1 receptor
Type: cell-based
appliedConditions: average, at least 3 independent tests
pEC50: −log10 of the molar value.

# substance, pEC50
records = [
    ("PKPEK(AEEAc-γGlu-CO(CH2)16COOH)PEED-Aib-SPEEWQRYY-Aib-SLRHYLNWLTRQRY-NH2 [Analogue 1]", "< 7.30"),
    ("PKPEK(AEEAc-γGlu-CO(CH2)16COOH)PE-Aib-DASPEEWQRYY-Aib-ELRHYLNWLTRQRY-NH2 [Analogue 3]", "< 7.30"),
]
